assay: AUCinfinity in male ICR mouse at 5 mg/kg, iv measured after 24 hrs by LC-MS/MS analysis; assay type: ADME, organism-based; details: in vivo
measured_quantity: AUC(0-inf) (ng·h/mL)
A number alone suffices; assume ng·h/mL.

What the record says about "O=c1ccn([C@@H]2S[C@H](CO)[C@@H](O)[C@H]2O)c(=O)[nH]1" : AUC(0-inf) is 20500

* * *

Reported CC50 at 48 h values are given for each entry in this list.
assay: Cytotoxicity against African green monkey Vero cells assessed as reduction in cell viability incubated for 48 hrs by MTT assay; assay type: toxicity, cell-based; conditions: chlorocebus sabaeus

What the record says about "Nc1ncnc2c1ncn2[C@@H]1S[C@H](CO)[C@@H](O)[C@H]1O" : CC50 at 48 h is 94.3 µM

What the record says about "CC(C)C(=O)OC[C@H]1S[C@@H](n2ccc(=O)[nH]c2=O)[C@H](O)[C@@H]1O" : CC50 at 48 h is > 100 µM

What the record says about "Cc1cn([C@@H]2S[C@H](CO)[C@@H](O)[C@H]2O)c(=O)[nH]c1=O" : CC50 at 48 h is > 100 µM

What the record says about "CCC(CC)COC(=O)[C@H](C)N[P@](=O)(OC[C@H]1O[C@@](C#N)(c2ccc3c(N)ncnn23)[C@H](O)[C@@H]1O)Oc1ccccc1" : CC50 at 48 h is > 100 µM

What the record says about "CC(C)OC(=O)[C@H](C)N[P@](=O)(OC[C@H]1S[C@@H](n2ccc(=O)[nH]c2=O)[C@H](O)[C@@H]1O)Oc1ccccc1" : CC50 at 48 h is > 100 µM

What the record says about O=c1nc(NO)ccn1[C@@H]1O[C@H](CO)[C@@H](O)[C@H]1O [N-HYDROXYCYTIDINE] : CC50 at 48 h is 38.6 µM

What the record says about "Nc1nc2c(ncn2[C@@H]2S[C@H](CO)[C@@H](O)[C@H]2O)c(=O)[nH]1" : CC50 at 48 h is > 100 µM

What the record says about "O=c1ccn([C@@H]2S[C@H](CO)[C@@H](O)[C@H]2O)c(=O)[nH]1" : CC50 at 48 h is > 100 µM

Continuing:
What the record says about "Nc1ccn([C@@H]2S[C@H](CO)[C@@H](O)[C@H]2O)c(=O)n1" : CC50 at 48 h is > 100 µM

* * *

assay: Selectivity index, ratio of CC50 for cytotoxicity against rhesus monkey LLC-MK2 cells to EC50 for antiviral activity against HCoV-NL63 infected in rhesus monkey LLC-MK2 cells assessed as inhibition of virus-induced cytopathic effect; type: toxicity, cell-based; conditions: read-out: Ratio CC50/EC50
measured_quantity: selectivity ratio

What the record says about "CCC(CC)COC(=O)[C@H](C)N[P@](=O)(OC[C@H]1O[C@@](C#N)(c2ccc3c(N)ncnn23)[C@H](O)[C@@H]1O)Oc1ccccc1" : selectivity ratio is > 702

* * *

assay: Selectivity index, ratio of CC50 for cytotoxicity against African green monkey Vero cells to EC50 for antiviral activity against SARS-CoV-2 infected in african green monkey Vero cells assessed as reduction in number of spike-protein expressing cells; type: toxicity, cell-based; conditions: read-out: Ratio CC50/EC50
Reported selectivity ratio values are given for each entry in this list.

Sample records with selectivity ratio:
What the record says about "Nc1ccn([C@@H]2S[C@H](CO)[C@@H](O)[C@H]2O)c(=O)n1" : selectivity ratio is > 41.7

What the record says about "Nc1ncnc2c1ncn2[C@@H]1S[C@H](CO)[C@@H](O)[C@H]1O" : selectivity ratio is 10.7

What the record says about "CC(C)C(=O)OC[C@H]1S[C@@H](n2ccc(=O)[nH]c2=O)[C@H](O)[C@@H]1O" : selectivity ratio is > 3.73

What the record says about O=c1nc(NO)ccn1[C@@H]1O[C@H](CO)[C@@H](O)[C@H]1O [N-HYDROXYCYTIDINE] : selectivity ratio is 37.5

What the record says about "CCC(CC)COC(=O)[C@H](C)N[P@](=O)(OC[C@H]1O[C@@](C#N)(c2ccc3c(N)ncnn23)[C@H](O)[C@@H]1O)Oc1ccccc1" : selectivity ratio is > 20.7

Continuing:
What the record says about "Nc1nc2c(ncn2[C@@H]2S[C@H](CO)[C@@H](O)[C@H]2O)c(=O)[nH]1" : selectivity ratio is > 2.07

* * *

test: Selectivity index, ratio of CC50 for cytotoxicity against human Calu-3 cells to EC50 for antiviral activity against SARS-CoV-2 Wuhan-like (hCoV-19/Korea/KCDC06/2020) infected in human Calu-3 cells assessed as reduction in number of spike-protein expressing cells; assay type: toxicity, cell-based; details: read-out: Ratio CC50/EC50
measured_quantity: selectivity ratio

What the record says about "CCC(CC)COC(=O)[C@H](C)N[P@](=O)(OC[C@H]1O[C@@](C#N)(c2ccc3c(N)ncnn23)[C@H](O)[C@@H]1O)Oc1ccccc1" : selectivity ratio is > 174

All figures here come from ChEMBL document CHEMBL6182943.
